Source listed as the supplement of paper PMC10126150.

- Test system: ATP;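 note: ATP exposure 15 min at 22 °C before imaging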
- ASSAY COMMENT: switch fluorescence ratio, 500 uM ATP over buffer (Cy3 cluster intensity, sum of 5 cycles each) (fold (ratio)); higher = stronger signal-on switching upon ATP binding; sequences stand for … in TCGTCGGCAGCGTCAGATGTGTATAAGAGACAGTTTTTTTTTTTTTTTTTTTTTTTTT…TC
- TEST CONTEXT: aptamer strand: ATP DNA aptamer (quencher-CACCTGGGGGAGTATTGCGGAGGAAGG + anchor), 100 nM annealed; ATP concentration: 500 uM
MEASURE NAME: switch fluorescence ratio
No unit in the answer, only the number.

Please review the entries below; each comes with its answer.
Which switch fluorescence ratio is listed for `GTTTTTGGAT` ?
0.991

Another sequence to look at: `TTTGAATTTA`
1

Request: `CAGTGATTTA`
0.981

Another sequence to look at: `ATTGGTTGTT`
1.01

Likewise for `ATGGGTACGG` ?
1.02

What do you have for `TCGAGAAGGT` ?
0.993

For `TTTGGACTGG` then?
1.01

Item: `TTTCGGGCGG`
0.999

# repeat for `GCGTTTGGG`
1.14

Same for `GCTTTTGGCC`
0.971

Further cases:
Dear colleague, I am looking for the recorded switch fluorescence ratio of the following sequence: `AAAATAAAGG`
0.976
